Data provenance: patent US5643958A

Molecular target: protein-farnesyl transferase (PFT) (Rattus norvegicus, UniProt Q02293+Q04631)
Construct: a soluble fraction of rat's brain was fractionated; 30-50% ammonium sulfate cut, dialysis, Q-Sepharose column
Experiment: Inhibitory activities against protein-farnesyl transferase (PFT)
Conditions: PFT derived from rat brain; 37° C.; preincubation 10 minutes, reaction 20 minutes; read-out: 50% inhibitory concentrations against PFT activities, IC50
pIC50: −log10 of the molar value.
Readout Label: pIC50

# Compound, Experimental System, Obs Value
measured = [
    ("COC(=O)c1ccc([C@H](C/C=C/c2nc3ccccc3o2)[C@H](C)N(Cc2ccc3sccc3c2)C(=O)C[C@@H](CC(=O)O)C(=O)O)cc1 (relative stereo) [Example 34]", "protein-farnesyl transferase (PFT) (Rattus norvegicus, UniProt Q02293+Q04631)", 9.28),
]

a = C[C@H]([C@H](C/C=C/c1nc2ccccc2o1)c1ccc2c(c1)OCO2)N(Cc1ccc2ccccc2c1)C(=O)CC(C(=O)O)C(CC(=O)O)C(=O)O (mixture of isomers) [Example 45]
b = CC(C(CC=Cc1nc2ccccc2o1)c1ccc2c(c1)OCO2)N(Cc1ccc2ccccc2c1)C(=O)C(O)CCC(=O)O (stereo not drawn) [Example 59]
Which value of pIC50 is greater, the one for a or the one for b ? Lab log: write the label of the selected item as the result.
a
